Entries and their collision cross section (N2)
settings: [M+H]+; instrument: DT; stepped-field
Your reply should be a number followed by the unit it is expressed in.

Recorded collision cross section (N2), per entry:
Compound	collision cross section (N2)
CCC(C)[C@H](N)C(=O)NCC(=O)N[C@@H](CO)C(=O)N[C@@H](CCC(=O)O)C(=O)N[C@H](C(=O)N[C@@H](Cc1ccc(O)cc1)C(=O)N[C@@H](Cc1c[nH]cn1)C(=O)N[C@@H](CC(N)=O)C(=O)N[C@@H](CC(C)C)C(=O)N[C@@H](CCCCN)C(=O)O)C(C)C (some centres undefined)	348.4 Å²
OC[C@H]1O[C@@H]2O[C@H]3[C@H](O)[C@@H](O)[C@@H](O[C@H]4[C@H](O)[C@@H](O)[C@@H](O[C@H]5[C@H](O)[C@@H](O)[C@@H](O[C@H]6[C@H](O)[C@@H](O)[C@@H](O[C@H]7[C@H](O)[C@@H](O)[C@@H](O[C@H]1[C@H](O)[C@H]2O)O[C@@H]7CO)O[C@@H]6CO)O[C@@H]5CO)O[C@@H]4CO)O[C@@H]3CO	285.2 Å²

Dear colleague, please send me the reported collision cross section (N2) for `CC(C)C[C@H](N)C(=O)N[C@@H](Cc1c[nH]c2ccccc12)C(=O)N[C@@H](CO)C(=O)N[C@@H](C)C(=O)N[C@@H](CCCCN)C(=O)O` when you can.
238.6 Å²

Dear colleague, please send me the reported collision cross section (N2) for CCC(C)[C@H](NC(=O)[C@H](CC(C)C)NC(=O)[C@H](CC(C)C)NC(=O)[C@H](CCC(=O)O)NC(=O)[C@H](CC(N)=O)NC(=O)[C@H](C)N)C(=O)N[C@@H](CC(N)=O)C(=O)N[C@H](C(=O)N[C@@H](CCCCN)C(=O)O)C(C)C (some centres undefined) when you can.
326.8 Å²
